Each recorded value in this set is attributed to ChEMBL document CHEMBL4483862.

Test system: Plasmodium berghei
Test: Luciferase/luciferin-expressing antifolate-resistant parasites were used to infect a culture of HepG2 cells that were pre-incubated with compounds. Infected hepatocytes emit light due to the luciferase reaction. Assay results are presented as the percent inhibition of light emission compared to control. […]
Format: functional
Conditions: sporozoite, PBLUC_HILL_SLOPE 2.34, PBLUC_R_SQUARED 0.225, read-out: LUCIFERASE INFECTION ASSAY - IC50
recordedEndpoint: IC50

>>> result("OC(c1ccc(F)c(Cl)c1)c1nnc(Nc2cccc(OC(F)(F)F)c2)s1 (stereo unspecified)")
"9.05 µM"

----------
We begin with a simple list: items and their reported pIC50.
Test system: Plasmodium berghei
Assay: Luciferase/luciferin-expressing antifolate-resistant parasites were used to infect a culture of HepG2 cells that were pre-incubated with compounds. Infected hepatocytes emit light due to the luciferase reaction. Assay results are presented as the percent inhibition of light emission compared to control. […]
Assay type: functional
Conditions: sporozoite, read-out: LUCIFERASE INFECTION ASSAY - IC50
pIC50: −log10 of the molar value.
recordedEndpoint: pIC50

>>> number("C/C(=N\\NC(=S)NC(C)(C)C)c1ccc(OCc2ncc(C(F)(F)F)cc2Cl)cc1")
6.10
>>> number("Cc1ccc2nc(NC(=O)c3ccccc3)c(C(=O)NC3CCCC3)n2c1")
5.51
>>> number("CCN(CC)C(=S)SCC(=O)c1cc(C)n(-c2ccccc2)c1C")
5.31

----------
Test system: Plasmodium berghei
Experiment: Luciferase/luciferin-expressing antifolate-resistant parasites were used to infect a culture of HepG2 cells that were pre-incubated with compounds. Infected hepatocytes emit light due to the luciferase reaction. Assay results are presented as the percent inhibition of light emission compared to control. […]
Assay type: functional
Settings: sporozoite, FFLUC_HILL_SLOPE 3.73, FFLUC_R_SQUARED 0.533, read-out: LUCIFERASE INFECTION ASSAY - IC50
pIC50: −log10 of the molar value.
recordedEndpoint: pIC50

>>> result("C=C(C)CSc1nc2cc(-c3ccc(C)cc3)sc2c(=O)n1Cc1ccccc1")
"< 5.00"

----------
Test system: Plasmodium berghei
Test: Luciferase/luciferin-expressing antifolate-resistant parasites were used to infect a culture of HepG2 cells that were pre-incubated with compounds. Infected hepatocytes emit light due to the luciferase reaction. Assay results are presented as the percent inhibition of light emission compared to control. […]
Format: functional
Settings: sporozoite, PBLUC_HILL_SLOPE 1.31, PBLUC_R_SQUARED 0.651, read-out: LUCIFERASE INFECTION ASSAY - IC50
recordedEndpoint: IC50 (µM)

>>> number("CN(C)CCNc1ccnc2c(-c3ccccc3Oc3ccccc3)cnn12")
5.14

----------
Tested on: Plasmodium berghei
Assay: Luciferase/luciferin-expressing antifolate-resistant parasites were used to infect a culture of HepG2 cells that were pre-incubated with compounds. Infected hepatocytes emit light due to the luciferase reaction. Assay results are presented as the percent inhibition of light emission compared to control. […]
Assay type: functional
Conditions: sporozoite, FFLUC_HILL_SLOPE 16.6, FFLUC_R_SQUARED 0.437, PBLUC_HILL_SLOPE 14.1, PBLUC_R_SQUARED 0.179, read-out: LUCIFERASE INFECTION ASSAY - IC50
pIC50: −log10 of the molar value.
recordedEndpoint: pIC50

>>> number("O=C(Nc1ccc(F)c(Cl)c1)Nc1csc(Cc2c(Cl)cccc2Cl)n1")
5.18

----------
System: Plasmodium berghei
Assay: Luciferase/luciferin-expressing antifolate-resistant parasites were used to infect a culture of HepG2 cells that were pre-incubated with compounds. Infected hepatocytes emit light due to the luciferase reaction. Assay results are presented as the percent inhibition of light emission compared to control. […]
Format: functional
Conditions: sporozoite, HEPG2TOX_HILL_SLOPE 11, HEPG2TOX_R_SQUARED 0.947, PBLUC_HILL_SLOPE 1.04, PBLUC_R_SQUARED 0.291, read-out: LUCIFERASE INFECTION ASSAY - IC50
pIC50: −log10 of the molar value.
recordedEndpoint: pIC50

>>> number("O=C(Cn1ncc(Br)c(Br)c1=O)C12CC3CC(CC(C3)C1)C2")
5.56

----------
Tested on: Plasmodium berghei
Test: Luciferase/luciferin-expressing antifolate-resistant parasites were used to infect a culture of HepG2 cells that were pre-incubated with compounds. Infected hepatocytes emit light due to the luciferase reaction. Assay results are presented as the percent inhibition of light emission compared to control. […]
Assay type: functional
Conditions: sporozoite, FFLUC_HILL_SLOPE 9.54, FFLUC_R_SQUARED 0.167, PBLUC_HILL_SLOPE 2.96, PBLUC_R_SQUARED 0.482, read-out: LUCIFERASE INFECTION ASSAY - IC50
recordedEndpoint: IC50 (µM)

>>> number("COc1ccc(-c2cnc3cnc(-c4ccc(CNc5ccccc5)cc4)cn23)cc1")
4.66

----------
System: Plasmodium berghei
Experiment: Luciferase/luciferin-expressing antifolate-resistant parasites were used to infect a culture of HepG2 cells that were pre-incubated with compounds. Infected hepatocytes emit light due to the luciferase reaction. Assay results are presented as the percent inhibition of light emission compared to control. […]
Type: functional
Conditions: sporozoite, FFLUC_HILL_SLOPE 1.31, FFLUC_R_SQUARED 0.0559, read-out: LUCIFERASE INFECTION ASSAY - IC50
recordedEndpoint: IC50

>>> result("CCN(Cc1ccc2c(c1)OCO2)C(=O)c1oc2c(F)cccc2c1C")
"> 10 µM"

----------
Test system: Plasmodium berghei
Assay: Luciferase/luciferin-expressing antifolate-resistant parasites were used to infect a culture of HepG2 cells that were pre-incubated with compounds. Infected hepatocytes emit light due to the luciferase reaction. Assay results are presented as the percent inhibition of light emission compared to control. […]
Assay type: functional
Conditions: sporozoite, PBLUC_HILL_SLOPE 0.397, PBLUC_R_SQUARED 0.123, read-out: LUCIFERASE INFECTION ASSAY - IC50
pIC50: −log10 of the molar value.
recordedEndpoint: pIC50

>>> result("Cc1ccc2c(Cl)cc(Cl)c(Oc3ncnc4scc(-c5ccc(Cl)cc5)c34)c2n1")
"< 5.00"

----------
Tested on: Plasmodium berghei
Assay: Luciferase/luciferin-expressing antifolate-resistant parasites were used to infect a culture of HepG2 cells that were pre-incubated with compounds. Infected hepatocytes emit light due to the luciferase reaction. Assay results are presented as the percent inhibition of light emission compared to control. […]
Assay type: functional
Settings: sporozoite, HEPG2TOX_HILL_SLOPE 0.024, HEPG2TOX_R_SQUARED 0.0218, read-out: LUCIFERASE INFECTION ASSAY - IC50
recordedEndpoint: IC50

>>> result("Cc1cc(C(=O)C(C)OC(=O)CCc2nc(=O)c3ccccc3[nH]2)c(C)n1-c1ccc(Cl)cc1 (stereo unspecified)")
"> 10 µM"

----------
System: Plasmodium berghei
Test: Luciferase/luciferin-expressing antifolate-resistant parasites were used to infect a culture of HepG2 cells that were pre-incubated with compounds. Infected hepatocytes emit light due to the luciferase reaction. Assay results are presented as the percent inhibition of light emission compared to control. […]
Format: functional
Details: sporozoite, FFLUC_HILL_SLOPE 0.391, FFLUC_R_SQUARED 0.18, PBLUC_HILL_SLOPE 8.53, PBLUC_R_SQUARED 0.15, read-out: LUCIFERASE INFECTION ASSAY - IC50
recordedEndpoint: IC50 (µM)

>>> number("CNC(=S)N/N=C1\\C(=O)Nc2ccc(C(C)C)cc21")
8.69

----------
System: Plasmodium berghei
Experiment: Luciferase/luciferin-expressing antifolate-resistant parasites were used to infect a culture of HepG2 cells that were pre-incubated with compounds. Infected hepatocytes emit light due to the luciferase reaction. Assay results are presented as the percent inhibition of light emission compared to control. […]
Assay type: functional
Conditions: sporozoite, HEPG2TOX_HILL_SLOPE 2.11, HEPG2TOX_R_SQUARED 0.713, PBLUC_HILL_SLOPE 2.64, PBLUC_R_SQUARED 0.143, read-out: LUCIFERASE INFECTION ASSAY - IC50
pIC50: −log10 of the molar value.
recordedEndpoint: pIC50

>>> number("Cc1ccc2c(c1)C(c1ccccc1C(F)(F)F)CC(=O)N2 (stereo unspecified)")
5.24

----------
Tested on: Plasmodium berghei
Assay: Luciferase/luciferin-expressing antifolate-resistant parasites were used to infect a culture of HepG2 cells that were pre-incubated with compounds. Infected hepatocytes emit light due to the luciferase reaction. Assay results are presented as the percent inhibition of light emission compared to control. […]
Type: functional
Details: sporozoite, HEPG2TOX_HILL_SLOPE 1.52, HEPG2TOX_R_SQUARED 0.966, read-out: LUCIFERASE INFECTION ASSAY - IC50
pIC50: −log10 of the molar value.
recordedEndpoint: pIC50

>>> result("Cc1ccccc1/C=N/NC(N)=S")
"< 4.77"

----------
Tested on: Plasmodium berghei
Test: Luciferase/luciferin-expressing antifolate-resistant parasites were used to infect a culture of HepG2 cells that were pre-incubated with compounds. Infected hepatocytes emit light due to the luciferase reaction. Assay results are presented as the percent inhibition of light emission compared to control. […]
Format: functional
Conditions: sporozoite, FFLUC_HILL_SLOPE 18.9, FFLUC_R_SQUARED 0.573, PBLUC_HILL_SLOPE 1.34, PBLUC_R_SQUARED 0.647, read-out: LUCIFERASE INFECTION ASSAY - IC50
pIC50: −log10 of the molar value.
recordedEndpoint: pIC50

>>> number("Nc1c(C(=O)c2ccccc2O)cnn1-c1ccccc1C(F)(F)F")
6.23
